measurement_target: human sphingosine kinase type 1 (hSPHK1) (Homo sapiens, UniProt Q9NYA1)
Sequence (Q9NYA1 whole entry): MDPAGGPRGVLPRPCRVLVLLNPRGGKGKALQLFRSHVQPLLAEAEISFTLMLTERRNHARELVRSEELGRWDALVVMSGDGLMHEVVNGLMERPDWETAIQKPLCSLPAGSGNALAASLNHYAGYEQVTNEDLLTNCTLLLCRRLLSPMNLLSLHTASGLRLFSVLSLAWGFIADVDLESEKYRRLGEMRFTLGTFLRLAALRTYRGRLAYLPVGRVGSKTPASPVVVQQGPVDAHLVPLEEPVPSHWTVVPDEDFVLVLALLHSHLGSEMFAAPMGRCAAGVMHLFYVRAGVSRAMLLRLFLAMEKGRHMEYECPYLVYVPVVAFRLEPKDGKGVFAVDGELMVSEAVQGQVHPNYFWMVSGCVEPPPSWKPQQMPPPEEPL
test_description: Sphingosine kinase assay, recombinant human SPHK1 ([32P]S1P product, scintillation counting)
measurement_conditions: read-out: activity hSPHK1 (range estimates of KI values)
Procedure: Recombinant baculovirus encoding human sphingosine kinase type 1 (SPHK1) was used to infect Sf9 insect cells and after 2-5 days, cleared lysates were prepared and used without further purification. Human SPHK2, which was partially purified from baculovirus-infected Sf9 cell lysates, was purchased from a commercial source. Sphingosine kinase assays were performed using standard protocols. Product [^32P]S1P was recovered by binding to cation exchange paper and quantified by scintillation counting.

# compound, Ki
measured = [
    ("C=COCc1ccc(-c2noc([C@@H]3CCCN3C(=N)N)n2)cc1C(F)(F)F [Compound 77A]", "> 10 µM"),
]

----------
The entries below are paired with their reported Ki.
measurement_target: human sphingosine kinase type 2 (hSPHK2) (Homo sapiens)
Construct: purchased; host or cells: Sf9 insect cells (baculovirus)
Sequence (Q9NRA0 whole entry): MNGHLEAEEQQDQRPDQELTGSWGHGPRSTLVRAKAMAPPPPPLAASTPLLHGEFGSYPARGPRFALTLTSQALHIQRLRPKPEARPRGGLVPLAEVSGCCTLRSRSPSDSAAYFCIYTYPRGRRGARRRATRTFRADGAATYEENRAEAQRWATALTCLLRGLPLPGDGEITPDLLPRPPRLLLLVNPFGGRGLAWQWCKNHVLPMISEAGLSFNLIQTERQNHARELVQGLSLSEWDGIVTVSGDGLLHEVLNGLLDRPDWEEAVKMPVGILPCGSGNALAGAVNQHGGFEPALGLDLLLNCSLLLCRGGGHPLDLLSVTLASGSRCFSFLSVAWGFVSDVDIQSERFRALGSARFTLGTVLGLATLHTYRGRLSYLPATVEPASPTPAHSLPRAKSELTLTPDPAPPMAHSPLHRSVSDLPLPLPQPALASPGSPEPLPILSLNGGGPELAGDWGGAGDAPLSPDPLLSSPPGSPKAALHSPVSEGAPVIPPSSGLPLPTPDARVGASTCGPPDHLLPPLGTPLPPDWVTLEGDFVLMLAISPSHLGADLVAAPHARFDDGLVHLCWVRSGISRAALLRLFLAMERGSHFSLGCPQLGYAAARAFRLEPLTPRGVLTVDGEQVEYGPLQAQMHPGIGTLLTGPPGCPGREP
test_description: Sphingosine kinase assay, recombinant human SPHK2 ([32P]S1P product, scintillation counting)
Format: biochemical
measurement_conditions: read-out: activity hSPHK2 (range estimates of KI values)

# compound, Ki
measured = [
    ("CCCCCCCCOc1ccc(-c2noc([C@@H]3[C@@H](O)CCN3C(=N)N)n2)cc1C(F)(F)F [Compound 6A]", "< 1000 nM"),
    ("CCCCCCCCCn1ccc2cc(-c3noc([C@@H]4CCCN4C(=N)N)n3)ccc21 [Compound 17A]", "< 1000 nM"),
    ("C=COCc1ccc(-c2noc([C@@H]3CCCN3C(=N)N)n2)cc1C(F)(F)F [Compound 77A]", "> 10000 nM"),
]

Values from patent US12234229B2
